# Experimental Target: Stb5 (Saccharomyces cerevisiae) (UniProt P38699)
# Sequence: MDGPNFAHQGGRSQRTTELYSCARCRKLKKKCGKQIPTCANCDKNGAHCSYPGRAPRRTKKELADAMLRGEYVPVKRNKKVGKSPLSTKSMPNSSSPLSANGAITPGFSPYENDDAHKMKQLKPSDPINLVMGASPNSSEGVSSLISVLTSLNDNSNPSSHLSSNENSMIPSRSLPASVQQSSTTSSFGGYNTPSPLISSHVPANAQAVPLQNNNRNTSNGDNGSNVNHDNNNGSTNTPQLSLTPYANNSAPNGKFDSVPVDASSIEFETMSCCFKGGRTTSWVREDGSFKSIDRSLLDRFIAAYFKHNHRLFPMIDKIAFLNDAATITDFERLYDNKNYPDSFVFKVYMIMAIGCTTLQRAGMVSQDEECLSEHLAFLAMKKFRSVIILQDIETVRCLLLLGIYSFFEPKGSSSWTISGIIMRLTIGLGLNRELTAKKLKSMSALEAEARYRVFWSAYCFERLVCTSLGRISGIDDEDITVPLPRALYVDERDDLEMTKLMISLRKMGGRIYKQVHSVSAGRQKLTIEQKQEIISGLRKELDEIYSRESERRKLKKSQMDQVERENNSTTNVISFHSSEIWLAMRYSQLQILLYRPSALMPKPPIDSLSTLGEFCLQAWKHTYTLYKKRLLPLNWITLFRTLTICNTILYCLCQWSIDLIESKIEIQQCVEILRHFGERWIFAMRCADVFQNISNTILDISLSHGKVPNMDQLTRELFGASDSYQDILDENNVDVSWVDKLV
# Condition Label: 200 nM
binding signal (PBM E-score (-0.5 to 0.5)) values by entry
Please give the numeric answer without any surrounding text.

Examples from the recorded data:
construct_sequence="AACACCGC (double strand) [8-mer AACACCGC]" result_number=0.48
construct_sequence="CGGCCTTA (double strand) [8-mer CGGCCTTA]" result_number=0.481
construct_sequence="CGGCATTA (double strand) [8-mer CGGCATTA]" result_number=0.489
construct_sequence="AACCCCGC (double strand) [8-mer AACCCCGC]" result_number=0.484
construct_sequence="CGGTGATA (double strand) [8-mer CGGTGATA]" result_number=0.488
construct_sequence="CGGTGCTA (double strand) [8-mer CGGTGCTA]" result_number=0.488
construct_sequence="CGGACTTA (double strand) [8-mer CGGACTTA]" result_number=0.483
construct_sequence="CGGAGTTA (double strand) [8-mer CGGAGTTA]" result_number=0.487
construct_sequence="CGGTCTTA (double strand) [8-mer CGGTCTTA]" result_number=0.48
construct_sequence="CGGGGTTA (double strand) [8-mer CGGGGTTA]" result_number=0.495

Task: Given CGGCGTTA (double strand) [8-mer CGGCGTTA] , state its recorded binding signal (PBM E-score (-0.5 to 0.5)).
Output: 0.49

Task: What would you report for CGGAGATA (double strand) [8-mer CGGAGATA] ?
Output: 0.48

Task: What would you report for AAACACCG (double strand) [8-mer AAACACCG] ?
Output: 0.491

Task: What would you report for CGGCACTA (double strand) [8-mer CGGCACTA] ?
Output: 0.481

Task: What would you report for CGGTGTTA (double strand) [8-mer CGGTGTTA] ?
Output: 0.496
